- Assay Text: qHTS profiling for inhibitors of Plasmodium falciparum proliferation (AID 504749); also: nearly all actives have a fitted effect of over 60% in size; also: potency is read from the fitted curve at half-maximal effect
- Experimental Context: P. falciparum in erythrocytes, SYBR Green DNA, 72 h; parasite line A
Records with an inconclusive call do not appear. Activity calls are given as the source filed them. Calls follow the shape of the dose curve; as a rule, active = well fitted inhibition curve with a large enough effect; inconclusive = small, poorly fitted or top-dose-only effect; inactive = flat fitted curve, though single readings scatter.
Reported Endpoint: Potency

{"Compound": "COc1cc(-c2ccc(=O)[nH]n2)ccc1OC(F)F", "Reported": "11.2 µM (active)"}
{"Compound": "C=C(CC)C(=O)c1ccc(OCC(=O)O)c(Cl)c1Cl", "Reported": "12.6 µM (active)"}
{"Compound": "COc1ccc(/C=C/C(=O)c2ccc(OC)cc2OC)cc1", "Reported": "3.16 µM (active)"}
{"Compound": "CCCCC(CC)CN=C(N)NC(N)=NCCCCCCN=C(N)NC(N)=NCC(CC)CCCC (stereo unspecified)", "Reported": "1 µM (active)"}
{"Compound": "CCOC(=O)COc1ccc2c(C)c(CCN(CC)CC)c(=O)oc2c1Cl", "Reported": "3.55 µM (active)"}

Ask: What measured Potency goes with CCCCCCC[N+](CC)(CC)CCCCc1ccc(Cl)cc1 ?
Result: 1.78 µM (active)

====

- Test system: C2A
- Assay Text: qHTS profiling for inhibitors of Plasmodium falciparum proliferation (AID 504749); also: nearly all actives have a fitted effect of over 60% in size
- Experimental Context: P. falciparum in erythrocytes, SYBR Green DNA, 72 h; series mostly up to 28.7 µM
Records with an inconclusive call do not appear. Calls of active or inactive are those of the source. Calls follow the shape of the dose curve; as a rule, active = well fitted inhibition curve with a large enough effect; inconclusive = small, poorly fitted or top-dose-only effect; inactive = flat fitted curve, though single readings scatter. Numbered stars: 1 amine (or outer) side, 2 acyl side, 3 side chain; on linkers, the order of the positions; unused ones are H or OH. Bridge positions count the residues as written; N and C are the ends. Square brackets hold non-standard residues; d marks the D form. Peptide text beside a SMILES is read from it. I, II: the chains in the order shown. Actinocin(9to1) = Cc1c2oc3c(C)ccc(C(=O)[*:1])c3nc-2c(C(=O)[*:2])c(N)c1=O; NMeV = CN[C@H](C(=O)O)C(C)C; Sar = CNCC(=O)O
Your response should consist of one outcome taken from 1 = active, 0 = inactive

Below are worked cases with known answers.
{"Compound": "Cc1c2oc3c(C)ccc(C(=O)N[C@@H]4C(=O)N[C@H](C(C)C)C(=O)N5CCC[C@H]5C(=O)N(C)CC(=O)N(C)[C@@H](C(C)C)C(=O)O[C@@H]4C)c3nc-2c(C(=O)N[C@@H]2C(=O)N[C@H](C(C)C)C(=O)N3CCC[C@H]3C(=O)N(C)CC(=O)N(C)[C@@H](C(C)C)C(=O)O[C@@H]2C)c(N)c1=O (I: T[dV]P[Sar][NMeV] / II: T[dV]P[Sar][NMeV]; ester I:1-I:C, II:1-II:C; linker I:N-II:N via Actinocin(9to1))", "Target Of Assay": "C2A", "Class Name": 1}
{"Compound": "Oc1c(I)cc(Cl)c2cccnc12", "Target Of Assay": "C2A", "Class Name": 1}
{"Compound": "CC(C)COC(=O)c1ccc(N)cc1", "Target Of Assay": "C2A", "Class Name": 0}

Ask: Test call, this compound: COC1=CC(=O)C[C@@H](C)[C@]12Oc1c(Cl)c(OC)cc(OC)c1C2=O
Result: 0

Ask: Test call, this compound: CC(C)(C(=O)c1cccnc1)c1cccnc1
Result: 0

Ask: Test call, this compound: O=C(N/N=C/c1ccccc1O)c1ccncc1
Result: 1

Ask: Test call, this compound: CC(=O)Oc1ccc(C(c2ccc(OC(C)=O)cc2)c2ccccn2)cc1
Result: 0

Ask: Test call, this compound: CC(C)NC[C@@H](O)COc1cccc2ccccc12
Result: 0

Ask: Test call, this compound: C[C@@H](CN(C)C)CN1c2ccccc2Sc2ccccc21
Result: 0

====

- Tested on: UISO
- Assay Text: qHTS assay to identify novel small-molecules to repurpose for Merkel cell carcinoma treatment (AID 1296009); also: potency is read from the fitted curve at half-maximal effect; nearly all actives have a fitted effect of over 60% in size
- Experimental Context: MCC and control cell lines, CellTiter-Glo viability, 72 h; series mostly up to 46 µM
Results filed as inconclusive are left out. Activity calls are given as the source filed them. Calls follow the shape of the dose curve; as a rule, active = well fitted inhibition curve with a large enough effect; inconclusive = small, poorly fitted or top-dose-only effect; inactive = flat fitted curve, though single readings scatter. Numbered stars: 1 amine (or outer) side, 2 acyl side, 3 side chain; on linkers, the order of the positions; unused ones are H or OH. Bridge positions count the residues as written; N and C are the ends. Square brackets hold non-standard residues; d marks the D form. Peptide text beside a SMILES is read from it. I, II: the chains in the order shown. Actinocin(9to1) = Cc1c2oc3c(C)ccc(C(=O)[*:1])c3nc-2c(C(=O)[*:2])c(N)c1=O; NMeV = CN[C@H](C(=O)O)C(C)C; Sar = CNCC(=O)O
Reported Endpoint: Potency

Ask: What measured Potency goes with Cc1c2oc3c(C)ccc(C(=O)N[C@@H]4C(=O)N[C@H](C(C)C)C(=O)N5CCC[C@H]5C(=O)N(C)CC(=O)N(C)[C@@H](C(C)C)C(=O)O[C@@H]4C)c3nc-2c(C(=O)N[C@@H]2C(=O)N[C@H](C(C)C)C(=O)N3CCC[C@H]3C(=O)N(C)CC(=O)N(C)[C@@H](C(C)C)C(=O)O[C@@H]2C)c(N)c1=O (I: T[dV]P[Sar][NMeV] / II: T[dV]P[Sar][NMeV]; ester I:1-I:C, II:1-II:C; linker I:N-II:N via Actinocin(9to1)) ?
Result: 3.3 nM (active)

====

- Test system: CRL-7250
- Assay Text: Cytotoxic Profiling of Annotated Libraries Using Quantitative High-Throughput Screening (AID 1296008); also: nearly all actives have a fitted effect of over 60% in size
- Experimental Context: Five cell lines viability, CellTiter-Glo ATP luminescence, 48-72 h
- Experimental: Cell-based phenotypic screening is a commonly used approach to discover biological pathways, novel drug targets, chemical probes and high-quality hit-to-lead molecules. […] A pintool (Kalypsys) was used to transfer 23 nL of compound solution to the 1536-well assay plates. […] Plates were left at room temperature for 10 min before imaging the ATP-coupled luminescence using a ViewLux microplate imager (PerkinElmer, Waltham, MA).
Results filed as inconclusive are left out. Active and inactive are the calls of the source. Calls come from the whole dose curve; as a rule, active = well fitted inhibition curve with a large enough effect; inconclusive = small, poorly fitted or top-dose-only effect; inactive = flat fitted curve, though single readings scatter.
Your response should consist of one outcome taken from 1.0 (active), 0.0 (inactive)

Below are worked cases with known answers.
{"Compound Smiles": "COCc1c(C(C)C)nc(C(C)C)c(/C=C/[C@@H](O)C[C@@H](O)CC(=O)O)c1-c1ccc(F)cc1", "Class Name": 1.0}
{"Compound Smiles": "CCCCCCC[N+](CC)(CC)CCCCc1ccc(Cl)cc1", "Class Name": 1.0}

Ask: Test call, this compound: CCCCCCCCCCCCCCCC[N+](C)(C)CC
Result: 1.0

Ask: Test call, this compound: OC[C@H]1O[C@H](O[C@]2(CCl)O[C@H](CCl)[C@@H](O)[C@@H]2O)[C@H](O)[C@@H](O)[C@H]1Cl
Result: 0.0

Ask: Test call, this compound: COC1=CC(=O)C[C@@H](C)[C@]12Oc1c(Cl)c(OC)cc(OC)c1C2=O
Result: 0.0

====

- Test system: CP286
- Assay Text: qHTS profiling for inhibitors of Plasmodium falciparum proliferation (AID 504749); also: nearly all actives have a fitted effect of over 60% in size; also: potency is read from the fitted curve at half-maximal effect
- Experimental Context: P. falciparum in erythrocytes, SYBR Green DNA, 72 h; series mostly up to 28.7 µM
Inconclusive results are not listed. Active and inactive are the calls of the source. Calls follow the shape of the dose curve; as a rule, active = well fitted inhibition curve with a large enough effect; inconclusive = small, poorly fitted or top-dose-only effect; inactive = flat fitted curve, though single readings scatter.
Reported Endpoint: Potency

Here are 10 molecules together with their reported answers.
{"Molecule": "Cc1cc(=O)n(-c2ccccc2)n1C", "Potency": "inactive"}
{"Molecule": "O=C(O)CNC(=O)c1ccccc1", "Potency": "inactive"}
{"Molecule": "CN1C(CCl)Nc2cc(Cl)c(S(N)(=O)=O)cc2S1(=O)=O (centres undefined)", "Potency": "inactive"}
{"Molecule": "CCCCCCCCCCCCCCCC[N+](C)(C)CC", "Potency": "1.41 µM (active)"}
{"Molecule": "COc1cc(OC)cc(OC)c1", "Potency": "inactive"}
{"Molecule": "CC(C)(C)CC(C)(C)c1ccc(OCCOCC[N+](C)(C)Cc2ccccc2)cc1", "Potency": "2.24 µM (active)"}
{"Molecule": "CC[N+](CC)(CCNC(=O)C(=O)NCC[N+](CC)(CC)Cc1ccccc1Cl)Cc1ccccc1Cl", "Potency": "0.891 µM (active)"}
{"Molecule": "Cc1ccnc(NS(=O)(=O)c2ccc(N)cc2)n1", "Potency": "inactive"}
{"Molecule": "c1ccc(OCc2ccc(CCCN3CCOCC3)cc2)cc1", "Potency": "inactive"}
{"Molecule": "CCN(CC)CCOc1ccc(C(O)(Cc2ccc(Cl)cc2)c2ccc(C)cc2)cc1 (centres undefined)", "Potency": "10 µM (active)"}

Ask: Could you share what Potency was measured for O=C(N/N=C/c1ccccc1O)c1ccncc1 , tested on CP286?
Result: 5.01 µM (active)

Ask: Could you share what Potency was measured for CC(=O)Oc1ccc(C(c2ccc(OC(C)=O)cc2)c2ccccn2)cc1 , tested on CP286?
Result: inactive

Ask: Could you share what Potency was measured for O=C(CCN1CCC(c2ccccc2)C1)c1ccc2c(c1)OCCO2 (centres undefined) , tested on CP286?
Result: inactive
